Source listed as the supplement of paper PMC7125110.

B1: glmS ribozyme (parent)
chain: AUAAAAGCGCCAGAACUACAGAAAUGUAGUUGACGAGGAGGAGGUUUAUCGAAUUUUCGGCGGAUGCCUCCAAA

variants of: B1; experiment: self-cleavage kobs at 2500 uM GlcN6P; higher = faster cleavage; RNA array; conditions: with glucosamine-6-phosphate
Fewer inactive variants are shown than the library holds.
For each of the variants below, state its self-cleavage kobs at 2500 uM GlcN6P.

According to the records, this variant U55G C58A displays self-cleavage kobs at 2500 uM GlcN6P of 0.000177 s⁻¹

Lab note: U30A C58A C67U gave self-cleavage kobs at 2500 uM GlcN6P of 4.25e-05 s⁻¹

Data point: A15G G41A ; self-cleavage kobs at 2500 uM GlcN6P = 0.0013 s⁻¹

Consider G13C A36G A39U . Its measured self-cleavage kobs at 2500 uM GlcN6P is < 1e-05 s⁻¹

Record summary for U46G A48U C61A : reported self-cleavage kobs at 2500 uM GlcN6P = < 1e-05 s⁻¹

Data point: G43A U65C ; self-cleavage kobs at 2500 uM GlcN6P = < 1e-05 s⁻¹

Summary for this variant, U54A C68G : self-cleavage kobs at 2500 uM GlcN6P is 0.000106 s⁻¹

According to the records, this variant A52G U55G displays self-cleavage kobs at 2500 uM GlcN6P of 0.000786 s⁻¹

Consider G9U A15C C68U . Its measured self-cleavage kobs at 2500 uM GlcN6P is < 1e-05 s⁻¹

Summary for this variant, A15G G66A : self-cleavage kobs at 2500 uM GlcN6P is 0.00542 s⁻¹

self-cleavage kobs at 2500 uM GlcN6P reported for this variant G44A U45G U49A C50G : < 1e-05 s⁻¹

Reported self-cleavage kobs at 2500 uM GlcN6P of G7A C16G U30G G44U A52G : < 1e-05 s⁻¹

Lookup result for C16U G60A ; measured self-cleavage kobs at 2500 uM GlcN6P: 2.66e-05 s⁻¹

self-cleavage kobs at 2500 uM GlcN6P recorded for this variant, G40C G44A A53C , is < 1e-05 s⁻¹

For reference, reported self-cleavage kobs at 2500 uM GlcN6P for A48G U49C G60A stands at < 1e-05 s⁻¹

The variant listed as A33G A48G C71U shows self-cleavage kobs at 2500 uM GlcN6P equal to < 1e-05 s⁻¹

The measured self-cleavage kobs at 2500 uM GlcN6P associated with A15G U31A U47G reads 0.00142 s⁻¹

response.value for G41A U54A (field: self-cleavage kobs at 2500 uM GlcN6P) = 0.000311 s⁻¹

Value of self-cleavage kobs at 2500 uM GlcN6P reported for the variant A39U G43C G44A G51U is < 1e-05 s⁻¹

Lookup result for A12U G41C ; measured self-cleavage kobs at 2500 uM GlcN6P: 0.000168 s⁻¹

get_value(item= A6G U31C U55G , readout=self-cleavage kobs at 2500 uM GlcN6P) returns 4.23e-05 s⁻¹

Reported self-cleavage kobs at 2500 uM GlcN6P for C11G G35C U49G was < 1e-05 s⁻¹

Entry under test: C16G A39C C61U G63C . Its self-cleavage kobs at 2500 uM GlcN6P was < 1e-05 s⁻¹

Note to self: self-cleavage kobs at 2500 uM GlcN6P recorded for A36C C58A U65A C68G was 0.000116 s⁻¹

According to the records, this variant A12C U31C A39G displays self-cleavage kobs at 2500 uM GlcN6P of 0.00135 s⁻¹

Record A42G G51C G60C C68G , field self-cleavage kobs at 2500 uM GlcN6P: < 1e-05 s⁻¹

So, U31G A39U ? Its self-cleavage kobs at 2500 uM GlcN6P was 0.00485 s⁻¹

Consider G13U A53U . Its measured self-cleavage kobs at 2500 uM GlcN6P is 0.000584 s⁻¹

# self-cleavage kobs at 2500 uM GlcN6P (variant: C8G A36C A53C ) is < 1e-05 s⁻¹

Measured self-cleavage kobs at 2500 uM GlcN6P of G7A C8G : < 1e-05 s⁻¹

Entry U54G G59A ; self-cleavage kobs at 2500 uM GlcN6P = 6.93e-05 s⁻¹

Short answer for G29C G40A : self-cleavage kobs at 2500 uM GlcN6P was 0.000221 s⁻¹

For this variant ( G32A A39U U69A ), measured self-cleavage kobs at 2500 uM GlcN6P is < 1e-05 s⁻¹

For G43U U54G the variant record lists self-cleavage kobs at 2500 uM GlcN6P as 6.89e-05 s⁻¹

self-cleavage kobs at 2500 uM GlcN6P reported for this variant G40A C71U : 0.0322 s⁻¹

For this variant ( U31A U45G ), measured self-cleavage kobs at 2500 uM GlcN6P is 0.00203 s⁻¹

Lab note: measured self-cleavage kobs at 2500 uM GlcN6P of G13U U31C G44U A64U was < 1e-05 s⁻¹

Looking up G7C G40C , I see its self-cleavage kobs at 2500 uM GlcN6P listed as < 1e-05 s⁻¹

Per the record, A52G C67U has self-cleavage kobs at 2500 uM GlcN6P of 0.000524 s⁻¹

Noted for A6U C11G U30G U31A A42U : its self-cleavage kobs at 2500 uM GlcN6P reads < 1e-05 s⁻¹

Reported self-cleavage kobs at 2500 uM GlcN6P of A6G C16G G32A : < 1e-05 s⁻¹

Measured self-cleavage kobs at 2500 uM GlcN6P of A6G C50G C71G : 9.48e-05 s⁻¹

Looking up G40U U69C , I see its self-cleavage kobs at 2500 uM GlcN6P listed as 9.26e-05 s⁻¹

The reported self-cleavage kobs at 2500 uM GlcN6P of the variant G60U C67G was < 1e-05 s⁻¹

get_value(item= G41A G63U C70U , readout=self-cleavage kobs at 2500 uM GlcN6P) returns < 1e-05 s⁻¹

The value of self-cleavage kobs at 2500 uM GlcN6P measured for the variant C58A U65G C70U turned out to be 6.2e-05 s⁻¹
